- experiment.notes: Thermo Scientific Acclaim RSLC 120 C18, 100 × 2.1 mm, 2.2 µm, 30 °C, 0.2 to 0.48 mL/min, estimated dead time 1.1 min; A: 90% water + 10% methanol + 5 mM ammonium acetate; B: methanol + 5 mM ammonium acetate; gradient (min/%B) 0.1/1 3/39 14/99.9 16/99.9
- measurement.conditions: stereoisomer not certain
// label = y if LC retention time is not less than 6 min, otherwise n

CC12CCC3c4ccc(O)cc4CCC3C1CC(O)C2=O (stereo not drawn) = y
CC(C)(C)NCC(O)COc1cccc2c1CC(O)C(O)C2 (stereo not drawn) = n
COc1ccc(C(=O)c2ccccc2O)cc1 = y
CC(C)C(NC(=O)C(CC(=O)O)NC(=O)C(CCCCN)NC(=O)C(N)CCCN=C(N)N)C(=O)NC(Cc1ccc(O)cc1)C(=O)O (stereo not drawn) = n

Note: attention shifts to another entry.
Given COC(=O)C(C)=COP(=S)(OC)OC , state whether its LC retention time is at least 6 min.
n

====

- experiment.notes: Thermo Scientific Acclaim RSLC 120 C18, 100 × 2.1 mm, 2.2 µm, 30 °C, 0.2 to 0.48 mL/min, estimated dead time 1.1 min; A: 90% water + 10% methanol + 5 mM ammonium acetate; B: methanol + 5 mM ammonium acetate; gradient (min/%B) 0.1/1 3/39 14/99.9 16/99.9
- measurement.conditions: stereoisomer not certain
// label = Fulfilled if LC retention time is not less than 8 min, otherwise Not fulfilled

Example entries and their recorded answers appear below.
NC(=O)c1ccccc1O = Not fulfilled
COc1cc(C=CC(=O)CC(=O)C=Cc2ccc(O)c(OC)c2)ccc1O = Fulfilled
CC(C)c1nc(CN(C)C(=O)NC(C(=O)NC(Cc2ccccc2)CC(O)C(Cc2ccccc2)NC(=O)OCc2cncs2)C(C)C)cs1 (stereo not given) = Fulfilled

Given CC(C(=O)O)c1cccc(Oc2ccccc2)c1 (stereo not given) , state whether its LC retention time is at least 8 min.
Not fulfilled

====

The reader will find reported LC retention time values listed item by item below.
- experiment.notes: Thermo Scientific Acclaim RSLC 120 C18, 100 × 2.1 mm, 2.2 µm, 30 °C, 0.2 to 0.48 mL/min, estimated dead time 1.1 min; A: 90% water + 10% methanol + 5 mM ammonium acetate; B: methanol + 5 mM ammonium acetate; gradient (min/%B) 0.1/1 3/39 14/99.9 16/99.9
- measurement.conditions: stereoisomer not certain
Give the value, in units of min, as a plain number.

O=c1[nH]cnc2[nH]ncc12 = 3.04

Short answer for COC(=O)NC(C(=O)NC(Cc1ccccc1)C(O)CN(Cc1ccc(-c2ccccn2)cc1)NC(=O)C(NC(=O)OC)C(C)(C)C)C(C)(C)C (stereo unspecified) : LC retention time was 12.4

Short answer for CCCCCCCCCc1ccc(O)cc1 : LC retention time was 12.9

Short answer for Nc1nc2ccccc2[nH]1 : LC retention time was 5.11

Short answer for On1nnc2ccccc21 : LC retention time was 3.69

Short answer for CC(C)(C)c1cc(C(C)(C)C)c(O)c(C(C)(C)C)c1 : LC retention time was 14.6

Short answer for CNCC(O)c1cccc(O)c1 (stereo unspecified) : LC retention time was 3.24

Short answer for CCC(C)C(=O)OC1CC(O)C=C2C=CC(C)C(CCC(O)CC(O)CC(=O)O)C21 (stereo unspecified) : LC retention time was 8.27

Short answer for O=[N+]([O-])c1ccc(O)c([N+](=O)[O-])c1 : LC retention time was 4.5

Short answer for C=C(c1ccc(C(=O)O)cc1)c1cc2c(cc1C)C(C)(C)CCC2(C)C : LC retention time was 14.1

Short answer for Cc1c(NC=O)c(=O)n(-c2ccccc2)n1C : LC retention time was 4.51

====

- experiment.notes: Thermo Scientific Acclaim RSLC 120 C18, 100 × 2.1 mm, 2.2 µm, 30 °C, 0.2 to 0.48 mL/min, estimated dead time 1.1 min; A: 90% water + 10% methanol + 5 mM ammonium acetate; B: methanol + 5 mM ammonium acetate; gradient (min/%B) 0.1/1 3/39 14/99.9 16/99.9
- measurement.conditions: stereoisomer not certain
The reader will find reported log10 LC retention time values listed item by item below.
# log10 transformed; quantity=LC retention time; unit=min

Short answer for Nc1nc2c(ncn2CCC(CO)CO)c(=O)[nH]1 : log10 LC retention time was 0.52

====

- experiment.notes: Thermo Scientific Acclaim RSLC 120 C18, 100 × 2.1 mm, 2.2 µm, 30 °C, 0.2 to 0.48 mL/min, estimated dead time 1.1 min; A: 90% water + 10% methanol + 5 mM ammonium acetate; B: methanol + 5 mM ammonium acetate; gradient (min/%B) 0.1/1 3/39 14/99.9 16/99.9
- measurement.conditions: stereoisomer not certain
The reader will find reported LC retention time values listed item by item below.
Give the value, in units of min, as a plain number.

O=c1[nH]c2c(c(=O)n1C1CCCCC1)CCC2 = 8.23
Nc1ccc(O)c(C(=O)O)c1 = 2.04
CSc1nnc(C(C)(C)C)c(=O)n1N = 7.04
CC(CCC(=O)O)C1CCC2C3C(O)CC4CC(O)CCC4(C)C3CCC12C (configuration not stated) = 11.1

Short answer for CCC(C)C1(CC)C(=O)NC(=O)NC1=O (configuration not stated) : LC retention time was 6.83

Short answer for CNC(=O)N(C)c1nnc(C(C)(C)C)s1 : LC retention time was 7.21

Short answer for CCC1(O)C(=O)OCc2c1cc1n(c2=O)Cc2cc3c(CN(C)C)c(O)ccc3nc2-1 (configuration not stated) : LC retention time was 5.61

====

The reader will find reported LC retention time values listed item by item below.
- experiment.notes: Thermo Scientific Acclaim RSLC 120 C18, 100 × 2.1 mm, 2.2 µm, 30 °C, 0.2 to 0.48 mL/min, estimated dead time 1.1 min; A: 90% water + 10% methanol + 5 mM ammonium acetate; B: methanol + 5 mM ammonium acetate; gradient (min/%B) 0.1/1 3/39 14/99.9 16/99.9
- measurement.conditions: stereoisomer not certain
Just so you know, I need the unit written after the number.

// known answers, use as guide
CC(C)(C)c1cc([N+](=O)[O-])cc([N+](=O)[O-])c1O = 8.13 min
CCN1CCCC1CNC(=O)c1cc(S(N)(=O)=O)ccc1OC (configuration not stated) = 4.42 min
CC(C)N1C(=O)c2ccccc2NS1(=O)=O = 4.49 min
CC(C)Nc1nc(N)[nH]c(=O)n1 = 4.08 min
CCCCN1CCCCC1C(=O)Nc1c(C)cccc1C (configuration not stated) = 10.7 min
COP(=O)(NC(C)=O)SC (configuration not stated) = 3.09 min

Short answer for CC(C)(C)NCC(O)c1ccc(O)c(CO)c1 (configuration not stated) : LC retention time was 4.06 min

====

- experiment.notes: Thermo Scientific Acclaim RSLC 120 C18, 100 × 2.1 mm, 2.2 µm, 30 °C, 0.2 to 0.48 mL/min, estimated dead time 1.1 min; A: 90% water + 10% methanol + 5 mM ammonium acetate; B: methanol + 5 mM ammonium acetate; gradient (min/%B) 0.1/1 3/39 14/99.9 16/99.9
- measurement.conditions: stereoisomer not certain
Binary label based on LC retention time with cut-off 6 min: below gives rule met, not below gives rule not met.

Example entries and their recorded answers appear below.
CCOc1ccc(NC(=O)OC(C)C)cc1OCC = rule not met
CSC1=NC(C)(c2ccccc2)C(=O)N1Nc1ccccc1 (stereo unspecified) = rule not met
CC12CCC(=O)C=C1C(O)CC1C2CCC2(C)C(O)CCC12 (stereo unspecified) = rule not met
CC(C)(C#N)c1cc(Cn2cncn2)cc(C(C)(C)C#N)c1 = rule not met
CC(Cc1ccc(O)cc1)NCC(O)c1cc(O)cc(O)c1 (stereo unspecified) = rule met
O=C(O)CCC(=O)c1ccc(-c2ccccc2)cc1 = rule not met
C=C(C)C1Cc2c(ccc3c2OC2COc4cc(OC)c(OC)cc4C2C3=O)O1 (stereo unspecified) = rule not met
CSc1nc(N=[N+]=[N-])nc(NC(C)C)n1 = rule not met
CC12CCC3c4cc(O)c(O)cc4CCC3C1CCC2=O (stereo unspecified) = rule not met
CCCCC(=O)N(Cc1ccc(-c2ccccc2-c2nn[nH]n2)cc1)C(C(=O)O)C(C)C (stereo unspecified) = rule not met

Criterion: LC retention time strictly below 6 min. Is it met by CCOC(=O)c1cn2nc(OP(=S)(OCC)OCC)cc2nc1C ?
rule not met

Criterion: LC retention time strictly below 6 min. Is it met by COC(=O)c1ccc(C)cc1C1=NC(C)(C(C)C)C(=O)N1 (stereo unspecified) ?
rule not met

Criterion: LC retention time strictly below 6 min. Is it met by COc1cc(NS(=O)(=O)c2ccc(NC(C)=O)cc2)nc(OC)n1 ?
rule met

Criterion: LC retention time strictly below 6 min. Is it met by Cc1cnc(NC(=O)C2=C(O)c3ccccc3S(=O)(=O)N2C)s1 ?
rule not met

Criterion: LC retention time strictly below 6 min. Is it met by CC(=O)Nc1cc(S(=O)(=O)O)cc2cc(S(=O)(=O)O)c(N=Nc3ccccc3)c(O)c12 ?
rule met

Criterion: LC retention time strictly below 6 min. Is it met by CCCCCC(=O)c1ccc(O)cc1O ?
rule not met
